Molecular target: UniProt:P61088
Sequence (P61088 whole entry): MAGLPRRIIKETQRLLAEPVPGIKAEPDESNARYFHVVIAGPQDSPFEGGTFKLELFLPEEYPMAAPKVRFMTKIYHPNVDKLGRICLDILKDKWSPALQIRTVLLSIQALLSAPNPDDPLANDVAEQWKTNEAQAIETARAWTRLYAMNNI
Format: functional
Activity calls are given as the source filed them.
Assay metric: IC50

Smiles text | IC50
Cc1ncc(CO)c(/C=N/NC(=O)c2cccc(S(=O)(=O)N3CCCC3)c2)c1O | > 20 µM (inactive)
COC(=O)C1=C(C)N(Cc2ccccc2)C(NCc2cccc(Cl)c2)=N[C@H]1c1ccccc1 | > 20 µM (inactive)

[ask] Entry `COc1ccccc1NC(=O)Nc1nc(C(C)(C)C)cs1` has what IC50?
[reply] > 20 µM (inactive)
